Measurement target: fibrin
Sequence (P02671 36-629, chain 1 of 3): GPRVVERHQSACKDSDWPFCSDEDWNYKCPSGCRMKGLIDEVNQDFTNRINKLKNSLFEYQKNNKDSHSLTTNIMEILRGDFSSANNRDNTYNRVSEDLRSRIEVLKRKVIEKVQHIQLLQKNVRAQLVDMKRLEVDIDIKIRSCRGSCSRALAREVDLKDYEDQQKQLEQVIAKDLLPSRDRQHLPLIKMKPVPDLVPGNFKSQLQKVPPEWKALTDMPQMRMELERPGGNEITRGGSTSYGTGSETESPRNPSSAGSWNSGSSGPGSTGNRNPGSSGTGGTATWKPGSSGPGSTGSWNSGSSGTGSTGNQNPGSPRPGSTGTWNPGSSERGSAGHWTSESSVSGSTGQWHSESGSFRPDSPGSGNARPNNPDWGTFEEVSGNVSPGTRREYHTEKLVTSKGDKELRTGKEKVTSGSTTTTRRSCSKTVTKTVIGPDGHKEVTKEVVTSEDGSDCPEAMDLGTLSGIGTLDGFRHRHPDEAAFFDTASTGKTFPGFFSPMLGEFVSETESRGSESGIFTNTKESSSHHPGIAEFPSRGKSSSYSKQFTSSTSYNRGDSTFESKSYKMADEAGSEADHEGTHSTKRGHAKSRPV
Sequence (P02675 45-491, chain 2 of 3, further chain): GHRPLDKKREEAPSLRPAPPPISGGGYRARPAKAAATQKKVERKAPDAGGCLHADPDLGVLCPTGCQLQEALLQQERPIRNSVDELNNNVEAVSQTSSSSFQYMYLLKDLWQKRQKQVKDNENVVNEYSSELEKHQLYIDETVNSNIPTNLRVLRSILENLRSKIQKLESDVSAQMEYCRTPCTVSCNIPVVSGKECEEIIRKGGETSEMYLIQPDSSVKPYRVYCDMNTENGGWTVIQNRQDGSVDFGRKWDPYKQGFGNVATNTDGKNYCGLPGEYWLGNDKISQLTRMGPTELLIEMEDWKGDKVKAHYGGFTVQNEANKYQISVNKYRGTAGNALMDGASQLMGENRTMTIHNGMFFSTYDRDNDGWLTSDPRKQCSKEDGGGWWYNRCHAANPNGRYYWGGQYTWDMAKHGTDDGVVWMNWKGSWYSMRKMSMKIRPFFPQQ
Sequence (P02679 other isoform, or with tags, fused parts or gaps, chain 3 of 3, further chain): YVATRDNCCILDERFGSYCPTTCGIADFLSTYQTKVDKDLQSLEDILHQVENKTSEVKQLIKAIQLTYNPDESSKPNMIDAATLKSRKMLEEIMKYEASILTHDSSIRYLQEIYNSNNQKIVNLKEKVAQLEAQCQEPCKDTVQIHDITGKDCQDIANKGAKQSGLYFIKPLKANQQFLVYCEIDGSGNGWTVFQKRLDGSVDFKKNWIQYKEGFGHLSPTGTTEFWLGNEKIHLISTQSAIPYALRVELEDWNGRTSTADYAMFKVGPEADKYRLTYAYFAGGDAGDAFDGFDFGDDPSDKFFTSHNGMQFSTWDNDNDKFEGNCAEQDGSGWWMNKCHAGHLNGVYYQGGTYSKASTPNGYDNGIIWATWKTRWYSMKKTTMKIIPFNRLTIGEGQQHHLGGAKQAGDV
Test details: fluorescence polarization, direct binding (n = 2)
Bridge positions count the residues as written; N and C are the ends. Square brackets hold non-standard residues; d marks the D form. Ends that are not written are not given here. Phe(3,4-F2) = N[C@@H](Cc1ccc(F)c(F)c1)C(=O)O; Phe(4-F) = N[C@@H](Cc1ccc(F)cc1)C(=O)O; Cha = N[C@@H](CC1CCCCC1)C(=O)O; CF5 = 5-carboxyfluorescein
Measured endpoint: Kd (nM)

INSERT INTO results (binder, assay_result) VALUES
  ('H-RGWQPCPAESWT[Cha]CWDPGGGK(CF5)-NH2 (disulfide 6-14) [RGWQPC*PAESWT-Cha-C*WDPGGGK(CF5)-NH2]', 50),
  ('RWQPCPAESWTFCWDPGGGK(CF5)-NH2 (disulfide 5-13; not fully specified (N-terminus); printed as RWQPC*PAESWTFC*WDPGGGK(CF5)-NH2) [Ac-RWQPC*PAESWTFC*WDPGGGK(CF5)-NH2]', 210),
  ('H-RWQPCPWESWTFCWDPGGGK(CF5)-NH2 (disulfide 5-13) [RWQPC*PWESWTFC*WDPGGGK(CF5)-NH2]', 110),
  ('Ac-RWQPCPWESWTFCWDPGGGK(CF5)-NH2 (disulfide 5-13) [Ac-RWQPC*PWESWTFC*WDPGGGK(CF5)-NH2]', 110),
  ('Ac-RGWQPCPAESWT[Cha]CWDPGGGK(CF5)-NH2 (disulfide 6-14) [Ac-RGWQPC*PAESWT-Cha-C*WDPGGGK(CF5)-NH2]', 100),
  ('Ac-WQPCPWESWT[Phe(3,4-F2)]CWDPGGGK(CF5)-NH2 (disulfide 4-12) [Ac-WQPC*PWESWT-F34fe-C*WDPGGGK(CF5)-NH2]', 700),
  ('Ac-WQPCPWESWT[Phe(4-F)]CWDPGGGK(CF5)-NH2 (disulfide 4-12) [Ac-WQPC*PWESWT-Ffe4-C*WDPGGGK(CF5)-NH2]', 1020);
